B1: CPEB3 Ribozyme (parent)
chain: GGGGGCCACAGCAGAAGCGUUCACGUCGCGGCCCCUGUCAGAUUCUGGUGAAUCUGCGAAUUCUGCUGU

variants of: B1; experiment: self-cleavage, relative activity (ratio to wild type); higher = more cleavage; co-transcriptional
Param threshold (0.2) applies to self-cleavage; output Fulfilled when value >= threshold, Not fulfilled when value < threshold.

# example entries with known answers
# mutation-name, class-name
records = [
    ("G37C G58A", "Fulfilled"),
    ("C12U C18A", "Not fulfilled"),
    ("U43C C57A", "Fulfilled"),
    ("C18G U36A", "Not fulfilled"),
]

Please tell me: is the variant G2C C9A at or over 0.2 in terms of self-cleavage?
Not fulfilled

Please tell me: is the variant A59C A60G at or over 0.2 in terms of self-cleavage?
Fulfilled

Please tell me: is the variant G19A C63A at or over 0.2 in terms of self-cleavage?
Not fulfilled
